The following molecules are listed with their measured Replicate 2 values.
molecular target: PmSiaT (Proteus mirabilis, UniProt B4EZY7); construct: made in house; assay: nanoDSF thermal shift assay, PmSiaT; type: binding; settings: PmSiaT Tm, experiment 2, second capillary, 1.25 mM
Sequence (B4EZY7 whole entry): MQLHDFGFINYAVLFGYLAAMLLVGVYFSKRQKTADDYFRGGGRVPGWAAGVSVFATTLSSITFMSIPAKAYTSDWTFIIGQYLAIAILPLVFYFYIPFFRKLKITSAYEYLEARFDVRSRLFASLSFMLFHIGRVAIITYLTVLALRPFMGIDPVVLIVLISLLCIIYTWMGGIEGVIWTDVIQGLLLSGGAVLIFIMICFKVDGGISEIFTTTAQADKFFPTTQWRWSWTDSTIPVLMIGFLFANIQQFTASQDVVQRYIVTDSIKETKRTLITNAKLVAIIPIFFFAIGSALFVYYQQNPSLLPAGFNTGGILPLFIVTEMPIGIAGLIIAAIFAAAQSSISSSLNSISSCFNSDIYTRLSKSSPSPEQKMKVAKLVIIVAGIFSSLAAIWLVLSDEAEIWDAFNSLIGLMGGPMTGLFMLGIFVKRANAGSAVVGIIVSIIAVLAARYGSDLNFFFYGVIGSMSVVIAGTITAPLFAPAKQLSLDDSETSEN
Record the result as a number with its unit.

// below: answered molecules
molecule: CC(=O)NC1C(OCc2ccc(C#N)cc2)CC(O)(C(=O)O)OC1C(O)C(O)CO (stereo not shown)
Replicate 2: 53.8 °C
--
molecule: CC(=O)N[C@H]1[C@H]([C@H](O)[C@H](O)CO)OC(O)(C(=O)O)C[C@@H]1O (stereo partly shown) [Neu5Ac, 5-N-acetyl neuraminic acid, reference compound]
Replicate 2: 49.2 °C
--
molecule: CC(=O)NC1C(O)CC(O)(C(=O)O)OC1C(O)C(O)CBr (stereo not shown)
Replicate 2: 47.1 °C
--
molecule: CC(=O)NC1C(OCc2ccccc2)CC(O)(C(=O)O)OC1C(O)C(O)CO (stereo not shown)
Replicate 2: 53.9 °C
--
molecule: CC(=O)NC1C(O)CC(O)(C(=O)O)OC1C(O)C(O)CI (stereo not shown)
Replicate 2: 47.2 °C
--
molecule: CC(=O)NC1C(O)CC(O)(C(=O)O)OC1C(O)C(O)CN=[N+]=[N-] (stereo not shown)
Replicate 2: 46.2 °C

Moving on to the next molecule.
Under PmSiaT (Proteus mirabilis, UniProt B4EZY7): report Replicate 2 of [N-]=[N+]=NCC(=O)N[C@H]1[C@H]([C@H](O)[C@H](O)CO)O[C@@](O)(C(=O)O)C[C@@H]1O [Compound 6h, reference compound] . 48.8 °C

The reported numbers originate from paper PMC9295122.
